Origin of the recorded values: the Human Domainome abundance scans (Beltran et al. 2025)

B1: Retinoic acid receptor beta, residues 85 to 161; numbered along this chain, P10826 (parent)
chain: YKPCFVCQDKSSGYHYGVSACEGCKGFFRRSIQKNMIYTCHRDKNCVINKVTRNRCQYCRLQKCFEVGMSKESVRND

- Variants of: B1
- Test Summary: abundance fitness (aPCA) (normalised: wild type 0, dead -1); higher = more abundant; growth selection in yeast, the domain comes from the species named
- Measurement Context: Homo sapiens
Record Fulfilled whenever abundance fitness is at -0.03 or higher; record Not fulfilled when lower.

mutant_designation=C4G class_name="Not fulfilled"
mutant_designation=F5Q class_name="Not fulfilled"
mutant_designation=P3A class_name=Fulfilled
mutant_designation=I32M class_name="Not fulfilled"

Is the recorded value of abundance fitness equal to or greater than -0.03 for this variant? R55T
Fulfilled

And what about the variant N49T ?
Fulfilled

And what about the variant Q33S ?
Fulfilled

And what about the variant K44D ?
Not fulfilled

And what about the variant G17Q ?
Not fulfilled
